Biological target: T1, neuropilin-1 (NRP1) on HEK293 cells overexpressing NRP1 (UniProt O14786 22-923, limits assumed)
T1 construct: whole, on cells
Assay: flow cytometry, HEK293-NRP1 vs HEK293
measurementName: 100 nM FACS (MFI Ratio)

-- ask Which measured 100 nM FACS (MFI Ratio) value corresponds to NRP1-57 (VHH) VHH: EVQLVESGGGLVQPGGSLRLSCAASGFTFSNSGMGWFRQAPGKERELVARITRGGRTYADSVKGRFTISADNSKNTAYLQMNSLKPEDTAVYYCAARRIVNVEGAYRDWGQGTLVTVSS ?
-- reply 0.1

-- ask Find the recorded 100 nM FACS (MFI Ratio) belonging to NRP1-76 (VHH) VHH: EVQLVESGGGLVQPGGSLRLSCAASGITFRRYAMGWFRQAPGKEREIVATIWWTFDAPYYADSVKGRFTISADNSKNTAYLQMNSLKPEDTAVYYCAAYQAGWGDWGQGTLVTVSS and report it.
-- reply 3.1

-- ask Item under review: NRP1-68 (VHH) VHH: EVQLVESGGGLVQPGGSLRLSCAASGNIFINNAMGWFRQAPGKERELVAAITSSSGRRWYADSVKGRFTISADNSKNTAYLQMNSLKPEDTAVYYCTTDRWYSSNWWGQGTLVTVSS . Reported 100 nM FACS (MFI Ratio)?
-- reply 4.9

-- ask What measured 100 nM FACS (MFI Ratio) goes with NRP1-224 (antibody, IgG2, V domains shown) VH: EVQLLESGGGLVQPGGSLRLSCAASGFTFGSYAMAWVRQAPGKGLEWVSGITASGGSTYYADSVKGRFTISRDNSKNTLYLQMNSLRAEDTAVYYCARVGPGRSIAARQGFKRRNNWFDPWGQGTLVTVSS VL: DIQMTQSPSSLSASVGDRVTITCRASQNIGRYLNWYQQKPGKAPKLLIYAASTLHSGVPSRFSGSGSGTDFTLTISSLQPEDFATYYCQQSHSNPFTFGGGTKVEIK ?
-- reply 1

-- ask Look at this binder and give its reported 100 nM FACS (MFI Ratio). NRP1-290 (antibody, IgG2, V domains shown) VH: EVQLLESGGGLVQPGGSLRLSCAASGFTFRNYAMTWVRQAPGKGLEWVSGISGSGGSTYYSDSVKGRFTISRDNSKNTLYLQMNSLRAEDTAVYYCARGRRGMPTPDTVRKMSKSHLYFDSWGQGTLVTVSS VL: DIQMTQSPSSLSASVGDRVTITCRTSQSISRYLNWYQQKPGKAPKLLIYGASTLQSGVPSRFSGSGSGTDFTLTISSLQPEDFATYYCQQNYIIPWTFGGGTKVEIK
-- reply 0.6

-- ask // lookup 100 nM FACS (MFI Ratio) for NRP1-210 (antibody, IgG2, V domains shown) VH: EVQLLESGGGLVQPGGSLRLSCAASGFTFSSYVMAWVRQAPGKGLEWVSTISASGGTTYYADSVKGRFTISRDNSKNTLYLQMNSLRAEDTAVYYCAKVGSGWYFWGQGTLVTVSS VL: DIQMTQSPSSLSASVGDRVTITCRTSQSISRYLNWYQQKPGKAPKLLIYAASSLQGGVPSRFSGSGSGTDFTLTISSLQPEDFATYYCQQSYTVPITFGGGTKVEIK
-- reply 2.1

Origin of the recorded values: patent US20230265198A1
